# maps each entry to its selectivity ratio
Assay: Selectivity index, ratio of IC50 for human A2780 cells to IC50 for Plasmodium falciparum FCM29
Assay type: toxicity, cell-based
Settings: A2780 cells versus Plasmodium falciparum FCM29, read-out: Ratio IC50
measurement_name: selectivity ratio

molecule: COC(=O)c1c(O)cc2c(c1C)C(=O)c1c(ccc(C3(OC(=O)C(C)C)c4cccc(O)c4C(=O)c4c3cc(O)c(C(=O)OC)c4C)c1O)C2=O (centres undefined) [SCUTIANTHRAQUINONE B]
measurement_name: selectivity ratio
inequality_symbol: =
result: 1.1
--
molecule: CCC(C)C(=O)OC1(c2ccc3c(c2O)C(=O)c2c(cc(O)c(C(=O)OC)c2C)C3(OC(=O)C(C)CC)c2ccc3c(c2O)C(=O)c2c(cc(O)c(C(=O)OC)c2C)C3=O)c2cccc(O)c2C(=O)c2c1cc(O)c(C(=O)OC)c2C (centres undefined) [SCUTIANTHRAQUINONE D]
measurement_name: selectivity ratio
inequality_symbol: =
result: 0.8
--
molecule: COC(=O)c1c(O)cc2c(c1C)C(=O)c1c(ccc(C3(O)c4cccc(O)c4C(=O)c4c3cc(O)c(C(=O)OC)c4C)c1O)C2=O (centres undefined) [SCUTIANTHRAQUINONE C]
measurement_name: selectivity ratio
inequality_symbol: >
result: 1
--
molecule: CCC(C)C(=O)OC1(c2ccc3c(c2O)C(=O)c2c(cc(O)c(C(=O)OC)c2C)C3=O)c2cccc(O)c2C(=O)c2c1cc(O)c(C(=O)OC)c2C (centres undefined) [SCUTIANTHRAQUINONE A]
measurement_name: selectivity ratio
inequality_symbol: =
result: 6.3

---

Tested on: A2780
Assay: Cytotoxicity against human A2780 cells
Type: cell-based
# maps each entry to its IC50
measurement_name: IC50 (µM)

compound: CCC(C)C(=O)OC1(c2ccc3c(c2O)C(=O)c2c(cc(O)c(C(=O)OC)c2C)C3(OC(=O)C(C)CC)c2ccc3c(c2O)C(=O)c2c(cc(O)c(C(=O)OC)c2C)C3=O)c2cccc(O)c2C(=O)c2c1cc(O)c(C(=O)OC)c2C (stereo unspecified)
measurement_name: IC50
inequality_symbol: =
result: 4.3
--
compound: COC(=O)c1c(O)cc2c(c1C)C(=O)c1c(ccc(C3(O)c4cccc(O)c4C(=O)c4c3cc(O)c(C(=O)OC)c4C)c1O)C2=O (stereo unspecified)
measurement_name: IC50
inequality_symbol: >
result: 16
--
compound: COC(=O)c1c(O)cc2c(c1C)C(=O)c1c(O)cccc1C2=O
measurement_name: IC50
inequality_symbol: >
result: 32
--
compound: COC(=O)c1c(O)cc2c(c1C)C(=O)c1c(ccc(C3(OC(=O)C(C)C)c4cccc(O)c4C(=O)c4c3cc(O)c(C(=O)OC)c4C)c1O)C2=O (stereo unspecified)
measurement_name: IC50
inequality_symbol: =
result: 5.8
--
compound: CC(=O)O[C@H]1C(=O)[C@@]2(C)[C@H]([C@H](OC(=O)c3ccccc3)[C@]3(O)C[C@H](OC(=O)[C@H](O)[C@@H](NC(=O)c4ccccc4)c4ccccc4)C(C)=C1C3(C)C)[C@]1(OC(C)=O)CO[C@@H]1C[C@@H]2O
measurement_name: IC50
inequality_symbol: =
result: 0.014
--
compound: CCC(C)C(=O)OC1(c2ccc3c(c2O)C(=O)c2c(cc(O)c(C(=O)OC)c2C)C3=O)c2cccc(O)c2C(=O)c2c1cc(O)c(C(=O)OC)c2C (stereo unspecified)
measurement_name: IC50
inequality_symbol: =
result: 7.6
